Test system: HeLa
Assay: Cytotoxicity against human HeLa cells assessed as reduction in cell viability incubated for 72 hrs by MTT assay
Assay type: functional, cell-based
pIC50: −log10 of the molar value.
Reported pIC50 values for a set of compounds
endpoint: pIC50

smilesstr=O=C(CCN1CCCC1)Nc1cccc(NC(=O)c2ccc3ccc4ccc(C(=O)Nc5cccc(NC(=O)CCN6CCCC6)n5)nc4c3n2)n1 measurement=6.08
smilesstr=O=C(Nc1ccc(OCCN2CCCC2)cc1)c1ccc2ccc3ccc(C(=O)Nc4ccc(OCCN5CCCC5)cc4)nc3c2n1 measurement=5.68

----------
Test system: MCF7
Test: Cytotoxicity against human MCF7 cells assessed as reduction in cell viability incubated for 72 hrs by MTT assay
Format: functional, cell-based
Conditions: MCF7, 72 h
endpoint: IC50 (µM)

smilesstr=O=C(CCN1CCCC1)Nc1cccc(NC(=O)c2ccc3ccc4ccc(C(=O)Nc5cccc(NC(=O)CCN6CCCC6)n5)nc4c3n2)n1 endpoint=IC50 measurement=1.57
smilesstr=O=C(Nc1ccc(OCCN2CCCC2)cc1)c1ccc2ccc3ccc(C(=O)Nc4ccc(OCCN5CCCC5)cc4)nc3c2n1 endpoint=IC50 measurement=2
